Just for reference, the supplement of paper PMC3545927 is where these values come from.

- tested on: furin, P09958;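 further: purified furin at 1:10 enzyme:substrate in 50 mM HEPES pH 7.5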
- Sequence (P09958 whole entry): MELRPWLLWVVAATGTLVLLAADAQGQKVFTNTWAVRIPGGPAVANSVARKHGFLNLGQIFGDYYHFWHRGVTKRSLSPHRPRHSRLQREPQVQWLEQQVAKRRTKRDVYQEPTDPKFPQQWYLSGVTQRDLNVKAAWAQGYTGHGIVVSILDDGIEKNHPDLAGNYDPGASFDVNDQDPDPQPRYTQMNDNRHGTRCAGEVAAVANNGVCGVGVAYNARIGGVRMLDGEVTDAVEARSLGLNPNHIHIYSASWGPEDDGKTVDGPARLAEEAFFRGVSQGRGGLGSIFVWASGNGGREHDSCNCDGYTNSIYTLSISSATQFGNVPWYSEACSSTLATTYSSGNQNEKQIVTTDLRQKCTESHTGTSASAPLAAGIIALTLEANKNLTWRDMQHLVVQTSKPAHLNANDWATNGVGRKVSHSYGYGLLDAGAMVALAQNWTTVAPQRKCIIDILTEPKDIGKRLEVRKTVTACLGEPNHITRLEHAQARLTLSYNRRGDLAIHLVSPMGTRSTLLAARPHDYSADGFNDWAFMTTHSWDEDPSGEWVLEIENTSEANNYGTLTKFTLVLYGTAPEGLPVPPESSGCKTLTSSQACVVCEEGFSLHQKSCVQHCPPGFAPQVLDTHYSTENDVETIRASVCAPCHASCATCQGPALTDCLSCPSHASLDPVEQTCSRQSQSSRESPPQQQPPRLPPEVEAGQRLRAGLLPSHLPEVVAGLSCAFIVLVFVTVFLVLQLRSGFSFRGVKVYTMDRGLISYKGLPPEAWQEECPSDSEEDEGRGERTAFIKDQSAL
- test description: furin cleavage Z-score vs untreated control; higher = more cleavage, active = 3.5 or more, inactive = 1 or less, 8 variable residues between constant flanks
- condition details: 15 min
This is one part of the list. How many sequences the whole screen found active is unknown.
Pick one: y (active), n (inactive)

Illustrative cases are given below, each with its answer.
CARTARSTNKAGNASASA [FS-2094]: y
CARPEKSVNKAGNASASA [FS-1759]: n
CATTPCSPSWAGNASASA [HC1899]: n

Shifting focus to the sequence that follows.
Inquiry: Query: recorded result category for CAFTAAVTSPAGNASASA [HC1057] in this test
Reply text: n
